Test system: Rattus norvegicus
Experimental Details: Antiulcerogenic activity in Wistar rat assessed as cytoprotection against ethanol-induced gastric lesions at 40 mg/kg administered 60 mins before ethanol challenge
Type: functional, organism-based
Parameters: dose 40 mg/kg
Condition Context: Stomach
Calls of active or inactive are those of the source. No cut-off for these calls is given here.
Output constraint: value belongs to class 1 for active, class 0 for inactive

Identify the outcome logged in this assay for the molecule shown: C=C1C(=O)O[C@H]2[C@H]1CCC(C)=C1C[C@H]3O[C@@]3(C)[C@@H]12
class 1

Which outcome did this test record for the molecule C=C1C(=O)O[C@@H]2C[C@@H](C)[C@@H]3C=CC(=O)[C@@]3(C)[C@@H](O)[C@H]12 ?
class 1

I'd appreciate the recorded outcome for C=C1C(=O)O[C@@H]2[C@H]1CC[C@H](C)[C@@]1(O)C=CC(=O)[C@@]21C from this test.
class 1

// outcome(item) with item = C=C1C(=O)O[C@@H]2[C@H]3C(C)=CC(=O)C3=C(C)CC[C@@H]12
class 1

// param item: CC1=CC(=O)C2=C(C)CC[C@@H]3[C@H](OC(=O)[C@H]3C)[C@@H]12 ; yields the recorded call
class 0

Short answer needed: outcome of this test for C=C1C(=O)O[C@H]2[C@H](O)[C@@H](C)[C@@H]3[C@@H](OC(=O)/C(C)=C\C)C[C@H](O)[C@@]3(C)[C@H](OC(C)=O)[C@H]12 ?
class 1

Hi team, can someone confirm the assay call for C=C1C(=O)O[C@@H]2[C@H]3C(=C)[C@@H](O)C[C@H]3C(=C)C[C@H](OC(=O)/C(C)=C\C)[C@@H]12 ?
class 1

What was the test verdict on C=C1C(=O)O[C@H]2C[C@@H](C)[C@@H]3C=CC(=O)[C@@]3(C)[C@H](O)[C@H]12 ?
class 1
